Ref: patent US20090306133A1

# assayed_target: Human recombinant Acetyl-CoA Carboxylase 2 (ACC2) (Homo sapiens, UniProt O00763)
# Sequence (O00763 whole entry): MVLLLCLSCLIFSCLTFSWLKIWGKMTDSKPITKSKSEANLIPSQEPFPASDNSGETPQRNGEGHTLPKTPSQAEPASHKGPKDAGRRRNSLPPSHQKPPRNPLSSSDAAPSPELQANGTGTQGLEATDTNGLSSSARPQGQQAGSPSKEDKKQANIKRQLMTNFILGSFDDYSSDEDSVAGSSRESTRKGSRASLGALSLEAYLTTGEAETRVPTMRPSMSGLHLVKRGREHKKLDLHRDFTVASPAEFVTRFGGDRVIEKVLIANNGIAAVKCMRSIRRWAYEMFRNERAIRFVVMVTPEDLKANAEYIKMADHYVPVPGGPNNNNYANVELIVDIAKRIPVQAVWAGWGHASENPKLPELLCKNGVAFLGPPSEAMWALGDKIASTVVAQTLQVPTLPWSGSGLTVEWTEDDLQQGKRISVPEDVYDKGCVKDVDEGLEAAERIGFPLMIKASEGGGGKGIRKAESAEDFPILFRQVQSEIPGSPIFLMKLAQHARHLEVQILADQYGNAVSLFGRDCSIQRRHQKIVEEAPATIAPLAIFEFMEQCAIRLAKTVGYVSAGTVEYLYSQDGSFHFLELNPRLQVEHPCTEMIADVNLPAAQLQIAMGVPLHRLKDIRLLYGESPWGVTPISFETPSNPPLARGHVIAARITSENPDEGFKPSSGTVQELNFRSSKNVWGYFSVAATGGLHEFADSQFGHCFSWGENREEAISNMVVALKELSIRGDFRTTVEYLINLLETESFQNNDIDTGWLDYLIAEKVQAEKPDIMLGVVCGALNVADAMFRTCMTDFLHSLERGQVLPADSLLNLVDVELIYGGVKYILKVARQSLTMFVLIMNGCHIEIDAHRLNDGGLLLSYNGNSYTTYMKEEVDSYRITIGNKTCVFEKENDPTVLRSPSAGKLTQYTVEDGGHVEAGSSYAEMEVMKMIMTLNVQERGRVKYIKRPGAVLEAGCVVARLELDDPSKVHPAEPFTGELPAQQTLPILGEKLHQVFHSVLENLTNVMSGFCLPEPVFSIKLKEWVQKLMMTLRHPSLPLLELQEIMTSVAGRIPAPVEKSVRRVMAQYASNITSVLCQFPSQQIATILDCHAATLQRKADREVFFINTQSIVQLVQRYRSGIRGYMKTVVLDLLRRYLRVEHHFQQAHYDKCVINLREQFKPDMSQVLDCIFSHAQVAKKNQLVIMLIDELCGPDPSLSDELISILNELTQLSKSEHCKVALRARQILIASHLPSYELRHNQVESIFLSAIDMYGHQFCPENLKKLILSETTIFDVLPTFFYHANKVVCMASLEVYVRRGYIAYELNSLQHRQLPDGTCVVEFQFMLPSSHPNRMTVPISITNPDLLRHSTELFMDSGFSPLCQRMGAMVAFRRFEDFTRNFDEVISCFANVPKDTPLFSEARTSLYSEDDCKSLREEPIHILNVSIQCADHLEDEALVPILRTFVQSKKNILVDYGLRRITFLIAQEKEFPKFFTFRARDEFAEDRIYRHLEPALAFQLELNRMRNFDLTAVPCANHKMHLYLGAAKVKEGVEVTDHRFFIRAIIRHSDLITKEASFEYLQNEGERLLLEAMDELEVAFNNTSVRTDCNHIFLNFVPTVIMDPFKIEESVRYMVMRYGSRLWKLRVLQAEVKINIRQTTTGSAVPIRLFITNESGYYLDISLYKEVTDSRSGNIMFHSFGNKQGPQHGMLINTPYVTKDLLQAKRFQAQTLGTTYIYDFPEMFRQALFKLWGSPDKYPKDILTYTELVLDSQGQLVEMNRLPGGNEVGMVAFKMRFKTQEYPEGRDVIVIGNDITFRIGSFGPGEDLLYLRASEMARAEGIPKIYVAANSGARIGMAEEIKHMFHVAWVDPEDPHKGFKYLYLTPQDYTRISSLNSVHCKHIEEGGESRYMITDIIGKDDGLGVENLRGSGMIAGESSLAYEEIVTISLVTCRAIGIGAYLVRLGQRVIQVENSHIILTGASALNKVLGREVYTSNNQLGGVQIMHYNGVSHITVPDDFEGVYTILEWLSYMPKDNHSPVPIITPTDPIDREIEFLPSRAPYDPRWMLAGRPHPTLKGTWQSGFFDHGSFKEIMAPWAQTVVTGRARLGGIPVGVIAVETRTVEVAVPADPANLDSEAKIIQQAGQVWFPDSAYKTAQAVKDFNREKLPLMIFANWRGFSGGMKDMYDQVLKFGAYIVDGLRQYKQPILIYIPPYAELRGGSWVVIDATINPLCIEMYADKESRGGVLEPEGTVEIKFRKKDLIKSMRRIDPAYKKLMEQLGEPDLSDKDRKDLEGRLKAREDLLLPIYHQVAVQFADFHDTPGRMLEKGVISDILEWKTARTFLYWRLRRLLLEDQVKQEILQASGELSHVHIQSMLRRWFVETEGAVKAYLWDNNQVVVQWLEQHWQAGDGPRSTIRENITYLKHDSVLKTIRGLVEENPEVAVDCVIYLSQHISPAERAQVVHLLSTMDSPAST
# protocol_description: Assay Y: ACC2 inhibition, inorganic phosphate (Malachite Green)
# Format: biochemical
# run_parameters: Assay Y: room temperature, 3 hr, 15 min preincubation
pIC50: −log10 of the molar value.
reported_property: pIC50

Consider the reported pIC50 for these molecules:
CC(C)(C)OC(=O)NC[C@H]1CC[C@H](CNC(=O)c2cc(-c3ccc(CN)cc3)nc3ccccc23)CC1 [Example 92, acetate]: 7.30
CC(=O)Nc1cccc2c(S(=O)(=O)NC[C@H]3CC[C@H](CNC(=O)OC(C)(C)C)CC3)cccc12 [Example 71]: 5.61
CCOC(=O)NC[C@H]1CC[C@H](CNC(=O)c2cc(-c3ccccc3)nc3ccccc23)CC1 [Example 62]: 5.56
CC(C)(C)OC(=O)NC[C@H]1CC[C@H](CN(CC#N)S(=O)(=O)c2ccc3ccccc3c2)CC1 [Example 83]: 5.49
CCOC(=O)NC[C@H]1CC[C@H](CNC(=O)c2cc(-c3ccncc3)nc3ccccc23)CC1 [Example 60]: 5.74

(P) CC(C)(C)OC(=O)NC[C@H]1CC[C@H](CNC(=O)c2cc(-c3ccc(CCN)cc3)nc3ccccc23)CC1 [Example 102]
(Q) CC(C)(C)OC(=O)NC[C@H]1CC[C@H](CNC(=O)c2cc(-c3ccc(C(N)=O)nc3)nc3ccccc23)CC1 [Example 5]
(R) CN(C)c1ccc(-c2cc(C(=O)NC[C@H]3CC[C@H](CNC(=O)OC(C)(C)C)CC3)c3ccccc3n2)cn1 [Example 11]
(S) CC(C)(C)NC(=O)NC[C@H]1CC[C@H](CNC(=O)c2cc(-c3ccncc3)nc3ccccc23)CC1 [Example 97]
(T) CN1CCN(c2ccc(-c3cc(C(=O)NC[C@H]4CC[C@H](CNC(=O)OCCF)CC4)c4ccccc4n3)cn2)CC1 [Example 118]
-- ask Ascending by pIC50, please: list the molecules accordingly. Kindly provide the labels arranged according to the requested ordering.
-- reply S, T, Q, R, P
(S: 5.21, T: 6.19, Q: 6.59, R: 7.00, P: 7.70)

----------
# assayed_target: Human recombinant Acetyl-CoA Carboxylase 2 (ACC2) (Homo sapiens, UniProt O00763)
# protocol_description: Assay Y: ACC2 inhibition, inorganic phosphate (Malachite Green)
# Assay type: biochemical
# run_parameters: Assay Y: room temperature, 3 hr, 15 min preincubation
reported_property: IC50 (µM)

Reference set, count: 3
CC(C)(C)OC(=O)NC[C@H]1CC[C@H](CNS(=O)(=O)c2ccc(Br)c(Br)c2)CC1: 3.72
CC(C)(C)OC(=O)NC[C@H]1CC[C@H](CNC(=O)c2cc(-c3ccc(Cl)cc3)nc3ccccc23)CC1: 0.97
CC(C)(C)OC(=O)NC[C@H]1CC[C@H](CNC(=O)c2cc(-c3cccc(CNS(C)(=O)=O)c3)nc3ccccc23)CC1: 0.07

(1) CC(C)(C)OC(=O)NC[C@H]1CC[C@H](CNC(=O)c2cccc3ccccc23)CC1
(2) CC(C)(C)OC(=O)NC[C@H]1CC[C@H](CN(CC(F)(F)F)S(=O)(=O)c2ccc3ccccc3c2)CC1
-- ask Short answer wanted: higher IC50, 1 or 2 ? Give the label of your selection.
-- reply 2
(2: 6.98 µM, 1: 3.64 µM)

(a) CCOC(=O)NC[C@H]1CC[C@H](CNC(=O)c2cc(-c3ccc(SC)cc3)nc3ccccc23)CC1
(b) CC(C)(C)OC(=O)NC[C@H]1CC[C@H](CNC(=O)c2ccnc(-c3cccc(Cl)c3)c2)CC1
-- ask Higher IC50: a or b ? Write down the label attached to your selection.
-- reply b
(b: 5.67 µM, a: 1.26 µM)
